biological target: HIV reverse transcriptase (RT) (Human immunodeficiency virus type 1 group M subtype B, UniProt P03366); construct: The enzyme RT (from HIV cloned in E. coli); purchased HT-Biotechnology Ltd, Cambridge, UK; host or cells: E. coli; test: Assay for HIV reverse transcriptase inhibition (scintillation proximity assay); type: biochemical
MEASUREMENT_KIND: pIC50
Reminder that pIC50 is minus the log10 of a molar concentration.

Briefly, pIC50 measured for CC(C)=CCN1c2ccccc2NC(=S)C1C (racemic) : 6.49

====

Here the recorded Reverse Transcriptase Assay IC50 is given for each entry.
biological target: HIV reverse transcriptase (RT) (Human immunodeficiency virus type 1 group M subtype B, UniProt P03366); construct: The enzyme RT (from HIV cloned in E. coli); purchased HT-Biotechnology Ltd, Cambridge, UK; host or cells: E. coli; experiment: Assay for HIV reverse transcriptase inhibition (scintillation proximity assay); type: biochemical; settings: RT from HIV cloned in E. coli; SPA, 60 minutes (37° C.)

- COMPOUND: "CC1C(=O)Nc2ccc(Cl)cc2N1Cc1ccccc1[N+](=O)[O-] (stereo not shown)"
  Reverse Transcriptase Assay IC50: "0.1 to 1 µg/mL"
- COMPOUND: "CC(C)=CCN1c2cc(Cl)ccc2NC(=O)C1C (racemic)"
  Reverse Transcriptase Assay IC50: "0.8 µg/mL"
- COMPOUND: "CC1C(=O)Nc2ccc(Cl)cc2N1Cc1ccccc1Cl (stereo not shown)"
  Reverse Transcriptase Assay IC50: "0.1 to 1 µg/mL"
- COMPOUND: "C=C(C)OC(=O)N1c2cccc(C)c2NC(=O)C1(C)C"
  Reverse Transcriptase Assay IC50: "0.1 to 1 µg/mL"

Value of measured Reverse Transcriptase Assay IC50 for the entry COc1ccc2c(c1)N(C(=O)OC(C)C)C(CSC)C(=S)N2 (stereo not shown) : <0.01 µg/mL

Field Reverse Transcriptase Assay IC50 (entry C=C(C)OC(=O)N1c2cc(Cl)ccc2NC(=O)C1CCC (stereo not shown) ) reads 0.1 to 1 µg/mL

Reported Reverse Transcriptase Assay IC50 ( `C=C(C)OC(=O)N1c2cc(Cl)ccc2NC(=S)C1(C)C` ) = 0.01 µg/mL

In plain terms, CC1C(=O)Nc2ccc(Cl)cc2N1Cc1cccc(Cl)c1 (stereo not shown) has a documented Reverse Transcriptase Assay IC50 of 0.1 to 1 µg/mL

Notebook: C=C(C)OC(=O)N1c2cc(Cl)ccc2NC(=O)C1CC (stereo not shown) , Reverse Transcriptase Assay IC50 read as 0.025 µg/mL

Reverse Transcriptase Assay IC50 in this record for CSCC1C(=S)Nc2ccc(Cl)cc2N1C(=O)OC(C)C (stereo not shown) : <0.01 µg/mL
